Reference source: the supplement of paper PMC10567573

Quick reference for protein stability index among some variants
B1: SPATS1 (parent)
chain: YPEQSKGFHKAGSMLPPVNFSIVP

variants of: B1; assay: protein stability index of a GFP-peptide fusion (GPS, HEK-293T) (PSI 1-6); higher = more stable; details: c terminus: a fixed tail appended;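 further: lentivirally expressed fusions sorted by FACS into six bins by GFP to DsRed ratio, PSI derived from sequencing read proportions per bin multiplied by bin number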
measurement name: protein stability index

INSERT INTO assay_data (var, measurement_name, meas_value) VALUES
  ('Y1E', 'protein stability index', 3.8),
  ('V18E', 'protein stability index', 1.81),
  ('P17C', 'protein stability index', 1.41),
  ('P2G', 'protein stability index', 1.8),
  ('P16W', 'protein stability index', 1.96),
  ('G12F', 'protein stability index', 1.64),
  ('S21T', 'protein stability index', 2.52),
  ('Y1S', 'protein stability index', 3.36),
  ('P16I', 'protein stability index', 1.54),
  ('I22R', 'protein stability index', 2.52),
  ('P17N', 'protein stability index', 1.9),
  ('H9P', 'protein stability index', 2.19),
  ('S21R', 'protein stability index', 1.8),
  ('P2T', 'protein stability index', 1.77),
  ('Q4W', 'protein stability index', 3.72),
  ('K6D', 'protein stability index', 2.29),
  ('G7D', 'protein stability index', 2.86),
  ('S21F', 'protein stability index', 1.6),
  ('M14L', 'protein stability index', 1.74),
  ('K6I', 'protein stability index', 1.86),
  ('P24W', 'protein stability index', 3.28),
  ('F20Y', 'protein stability index', 2.03),
  ('V23R', 'protein stability index', 1.9),
  ('E3H', 'protein stability index', 1.81),
  ('Y1L', 'protein stability index', 2.66),
  ('K10D', 'protein stability index', 2.54),
  ('S13D', 'protein stability index', 2.17),
  ('V18D', 'protein stability index', 2.26),
  ('S13Q', 'protein stability index', 1.97),
  ('V23L', 'protein stability index', 1.94),
  ('L15P', 'protein stability index', 2.42),
  ('G7V', 'protein stability index', 1.86),
  ('S5M', 'protein stability index', 2.37),
  ('H9Q', 'protein stability index', 2.51),
  ('P17W', 'protein stability index', 2.59),
  ('F20L', 'protein stability index', 1.97),
  ('P24Y', 'protein stability index', 2.08),
  ('V18R', 'protein stability index', 1.62),
  ('S21G', 'protein stability index', 1.81),
  ('I22V', 'protein stability index', 1.82),
  ('N19M', 'protein stability index', 1.75),
  ('I22F', 'protein stability index', 1.97),
  ('A11H', 'protein stability index', 2.21),
  ('S21Y', 'protein stability index', 2.6),
  ('F8M', 'protein stability index', 2.43),
  ('S13T', 'protein stability index', 1.7);
